biological target: ALK tyrosine kinase receptor (Homo sapiens); assay: Inhibition of recombinant human N-terminal GST-tagged ALK (1058 to 1620 residues) expressed in baculovirus expression system using Srctide as substrate incubated for 1 hr by mobility shift assay
Reported pIC50 values for the following compounds.
Scale: pIC50 equals -log10([C]), with [C] in mol/L.

INSERT INTO assay_data (compound, reportedvalue) VALUES
  ('COc1cc(SCc2ccc(CN3CCCC3)o2)ccc1Nc1ncc(Cl)c(Nc2ccccc2NS(C)(=O)=O)n1', 8.47),
  ('COc1cc(OCC2CCCO2)ccc1Nc1ncc(Cl)c(Nc2ccccc2NS(C)(=O)=O)n1 (centres undefined)', 8.52),
  ('COc1cc(NCC2CCCO2)ccc1Nc1ncc(Cl)c(Nc2ccccc2NS(C)(=O)=O)n1 (centres undefined)', 8.49);

For the next question, use this compound.
(Q) If you can, please state the reported pIC50 value of `COc1cc(SCc2ccc(CN(C)C)o2)ccc1Nc1ncc(Cl)c(Nc2ccccc2NS(C)(=O)=O)n1` .
(A) 8.55

----------
Reported pIC50 values for the following molecules.
target: ALK tyrosine kinase receptor (Homo sapiens, UniProt Q9UM73, L1196M); assay: Inhibition of recombinant human N-terminal GST-tagged ALK L1196M mutant (1058 to 1620 residues) expressed in baculovirus expression system using Srctide as substrate incubated for 1 hr by mobility shift assay
Scale: pIC50 equals -log10([C]), with [C] in mol/L.

See these solved cases before continuing.
INSERT INTO assay_data (molecule, reportedvalue) VALUES
  ('COc1cc(NCC2CCCO2)ccc1Nc1ncc(Cl)c(Nc2ccccc2NS(C)(=O)=O)n1 (centres undefined)', 8.24),
  ('COc1cc(SCc2ccc(CN(C)C)o2)ccc1Nc1ncc(Cl)c(Nc2ccccc2NS(C)(=O)=O)n1', 8.59),
  ('COc1cc(OCC2CCCO2)ccc1Nc1ncc(Cl)c(Nc2ccccc2NS(C)(=O)=O)n1 (centres undefined)', 8.48);

(Q) If you can, please state the reported pIC50 value of `COc1cc(SCc2ccc(CN3CCCC3)o2)ccc1Nc1ncc(Cl)c(Nc2ccccc2NS(C)(=O)=O)n1` .
(A) 8.55

----------
target: ALK tyrosine kinase receptor (Homo sapiens, UniProt Q9UM73, G1202R); assay: Inhibition of recombinant human N-terminal GST-tagged ALK G1202R mutant (1058 to 1620 residues) expressed in baculovirus expression system using Srctide as substrate incubated for 1 hr by mobility shift assay
Sequence (Q9UM73 19-1620 G1202R limits assumed): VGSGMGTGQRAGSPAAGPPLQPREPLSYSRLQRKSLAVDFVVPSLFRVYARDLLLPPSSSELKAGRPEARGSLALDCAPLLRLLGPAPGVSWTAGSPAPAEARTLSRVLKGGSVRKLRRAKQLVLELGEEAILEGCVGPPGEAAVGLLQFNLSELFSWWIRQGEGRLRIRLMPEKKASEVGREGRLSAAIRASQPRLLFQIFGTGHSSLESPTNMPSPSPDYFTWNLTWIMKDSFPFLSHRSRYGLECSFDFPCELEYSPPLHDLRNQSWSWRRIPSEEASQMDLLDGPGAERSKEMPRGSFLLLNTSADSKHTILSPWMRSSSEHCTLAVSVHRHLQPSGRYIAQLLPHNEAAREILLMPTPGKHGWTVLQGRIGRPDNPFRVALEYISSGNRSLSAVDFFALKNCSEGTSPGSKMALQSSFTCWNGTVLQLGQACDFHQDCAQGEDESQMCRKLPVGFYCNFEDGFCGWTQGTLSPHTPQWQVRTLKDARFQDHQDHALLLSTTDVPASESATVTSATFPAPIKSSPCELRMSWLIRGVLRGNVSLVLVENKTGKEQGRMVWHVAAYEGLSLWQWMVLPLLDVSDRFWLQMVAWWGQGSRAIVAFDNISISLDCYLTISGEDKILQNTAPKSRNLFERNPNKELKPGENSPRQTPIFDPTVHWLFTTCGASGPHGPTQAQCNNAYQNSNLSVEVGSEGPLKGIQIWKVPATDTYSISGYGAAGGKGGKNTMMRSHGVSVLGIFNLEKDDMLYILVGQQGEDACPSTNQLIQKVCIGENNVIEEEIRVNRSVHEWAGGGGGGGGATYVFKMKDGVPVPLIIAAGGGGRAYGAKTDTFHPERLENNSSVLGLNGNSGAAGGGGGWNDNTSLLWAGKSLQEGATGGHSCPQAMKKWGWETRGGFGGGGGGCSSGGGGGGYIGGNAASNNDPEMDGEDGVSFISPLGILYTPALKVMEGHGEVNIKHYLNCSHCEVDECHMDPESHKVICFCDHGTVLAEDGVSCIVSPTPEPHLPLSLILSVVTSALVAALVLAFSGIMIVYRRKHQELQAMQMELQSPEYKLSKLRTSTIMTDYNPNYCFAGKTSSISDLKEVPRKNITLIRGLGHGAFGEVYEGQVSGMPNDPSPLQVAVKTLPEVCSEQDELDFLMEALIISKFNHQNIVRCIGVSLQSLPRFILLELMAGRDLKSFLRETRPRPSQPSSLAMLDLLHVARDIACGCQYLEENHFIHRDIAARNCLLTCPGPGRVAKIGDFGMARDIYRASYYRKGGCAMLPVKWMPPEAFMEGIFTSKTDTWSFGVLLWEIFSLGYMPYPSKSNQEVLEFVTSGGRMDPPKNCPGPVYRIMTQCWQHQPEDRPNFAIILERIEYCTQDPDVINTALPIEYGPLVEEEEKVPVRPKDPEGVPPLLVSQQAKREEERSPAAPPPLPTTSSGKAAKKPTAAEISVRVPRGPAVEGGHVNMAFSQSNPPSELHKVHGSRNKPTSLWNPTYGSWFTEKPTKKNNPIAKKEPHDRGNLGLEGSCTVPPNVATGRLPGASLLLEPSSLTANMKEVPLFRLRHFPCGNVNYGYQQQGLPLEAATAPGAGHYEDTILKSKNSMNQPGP
Reported pIC50 values for the following compounds.
Scale: pIC50 equals -log10([C]), with [C] in mol/L.

INSERT INTO assay_data (compound, reportedvalue) VALUES
  ('COc1cc(NCC2CCCO2)ccc1Nc1ncc(Cl)c(Nc2ccccc2NS(C)(=O)=O)n1 (centres undefined)', 8.35),
  ('COc1cc(SCc2ccc(CN(C)C)o2)ccc1Nc1ncc(Cl)c(Nc2ccccc2NS(C)(=O)=O)n1', 8.42),
  ('COc1cc(OCC2CCCO2)ccc1Nc1ncc(Cl)c(Nc2ccccc2NS(C)(=O)=O)n1 (centres undefined)', 8.68);

For the next question, use this compound.
(Q) If you can, please state the reported pIC50 value of `COc1cc(SCc2ccc(CN3CCCC3)o2)ccc1Nc1ncc(Cl)c(Nc2ccccc2NS(C)(=O)=O)n1` .
(A) 8.41

----------
Reported IC50 values for the following molecules.
system: A549; experiment: Antiproliferative activity against human A549 cells assessed as reduction in cell growth incubated for 72 hrs by MTT assay; type: functional, cell-based; conditions: A549, 72 h

See these solved cases before continuing.
INSERT INTO results (molecule, assayreadout, reportedvalue) VALUES
  ('COc1cc(SCc2ccc(CN3CCCCC3)o2)ccc1Nc1ncc(Cl)c(Nc2ccccc2NS(C)(=O)=O)n1', 'IC50', '3920 nM'),
  ('COc1cc(NCC2CCCO2)ccc1Nc1ncc(Cl)c(Nc2ccccc2NS(C)(=O)=O)n1 (centres undefined)', 'IC50', '800 nM'),
  ('COc1cc(S(=O)(=O)Cc2ccco2)ccc1Nc1ncc(Cl)c(Nc2ccccc2NS(C)(=O)=O)n1', 'IC50', '> 10000 nM');

For the next question, use this molecule.
(Q) Checklist item: IC50 tested on A549, entry `COc1cc(SCc2ccc(CN3CCOCC3)o2)ccc1Nc1ncc(Cl)c(Nc2ccccc2NS(C)(=O)=O)n1` , value?
(A) 920 nM
